Test system: CCRIS mutagenicity, Ames/micronucleus/aberration tests
Assay: CCRIS mutagenicity studies
Details: Test System: AMES SALMONELLA TYPHIMURIUM; Strain/Indicator: TA98; Metabolic Activation: NONE; Method: STANDARD PLATE
The source made the active and inactive calls. No rule for the calls is given here.
Outcomes you can answer with include only these: class 1 for active, class 0 for inactive

Some solved cases for reference:
{"smilesInput": "[Cr]", "group": "class 1"}
{"smilesInput": "O=[N+]([O-])c1c2c(c3ccc4cccc5ccc1c3c45)CCCC2", "group": "class 0"}
{"smilesInput": "COc1cccc2c1C(=O)c1c(O)c3c(c(O)c1C2=O)C[C@@](O)(C(=O)CO)C[C@@H]3O[C@H]1C[C@H](N)[C@@H](O)[C@H](C)O1", "group": "class 1"}
{"smilesInput": "Cc1cc(N)c([N+](=O)[O-])cc1N", "group": "class 0"}
{"smilesInput": "Nc1c(O)cccc1[N+](=O)[O-]", "group": "class 0"}

Task: What did this assay record as the result for "COc1ccc2nc3cc(Cl)ccc3c(NCCCNCCCl)c2c1" ?
Output: class 1

---

Tested on: CCRIS mutagenicity, Ames/micronucleus/aberration tests
Assay: CCRIS mutagenicity studies
Settings: Test System: AMES SALMONELLA TYPHIMURIUM; Strain/Indicator: TA98; Metabolic Activation: NONE; Method: SUSPENSION
Active and inactive are the calls of the source. No rule for the calls is given here.
Outcomes you can answer with include only these: t (active), f (inactive)

{"smilesInput": "O=[N+]([O-])c1ccc2c(c1)Oc1ccccc1O2", "studyTarget": "CCRIS mutagenicity, Ames/micronucleus/aberration tests", "group": "t"}
{"smilesInput": "O=[N+]([O-])c1ccc2c(c1)oc1ccccc12", "studyTarget": "CCRIS mutagenicity, Ames/micronucleus/aberration tests", "group": "t"}
{"smilesInput": "O=[N+]([O-])c1ccc2c(c1)Oc1ccc([N+](=O)[O-])cc1O2", "studyTarget": "CCRIS mutagenicity, Ames/micronucleus/aberration tests", "group": "t"}
{"smilesInput": "O=[N+]([O-])c1cccc2oc3ccccc3c12", "studyTarget": "CCRIS mutagenicity, Ames/micronucleus/aberration tests", "group": "f"}

Then there is this compound:
Task: What did this assay record as the result for "c1ccc2c(c1)Oc1ccccc1O2" ?
Output: f

---

System: CCRIS mutagenicity, Ames/micronucleus/aberration tests
Assay: CCRIS mutagenicity studies
Details: Test System: AMES SALMONELLA TYPHIMURIUM; Strain/Indicator: TA1535; Metabolic Activation: RAT, LIVER, S-9, AROCLOR 1254; Method: STANDARD PLATE
Active and inactive are the calls of the source. How the calls were made is not given here.
Outcomes you can answer with include only these: true (1) (active), false (0) (inactive)

Some solved cases for reference:
{"molecule": "CCc1ccco1", "studyTarget": "CCRIS mutagenicity, Ames/micronucleus/aberration tests", "group": "false (0)"}
{"molecule": "CN(C)CCO", "studyTarget": "CCRIS mutagenicity, Ames/micronucleus/aberration tests", "group": "false (0)"}
{"molecule": "C=C(C)C(=O)OC(C)(C)C", "studyTarget": "CCRIS mutagenicity, Ames/micronucleus/aberration tests", "group": "false (0)"}
{"molecule": "CC(=O)Nc1ccc(O)cc1", "studyTarget": "CCRIS mutagenicity, Ames/micronucleus/aberration tests", "group": "false (0)"}
{"molecule": "CC/C(C)=N\\O", "studyTarget": "CCRIS mutagenicity, Ames/micronucleus/aberration tests", "group": "false (0)"}
{"molecule": "Oc1cc2ccccc2c2ccccc12", "studyTarget": "CCRIS mutagenicity, Ames/micronucleus/aberration tests", "group": "true (1)"}
{"molecule": "O=C1Nc2ccc(Cl)cc2C(c2ccccc2)=NC1O (stereo not given)", "studyTarget": "CCRIS mutagenicity, Ames/micronucleus/aberration tests", "group": "false (0)"}
{"molecule": "COC(=O)Nc1nc2ccccc2[nH]1", "studyTarget": "CCRIS mutagenicity, Ames/micronucleus/aberration tests", "group": "false (0)"}

Task: What did this assay record as the result for "Cl/C=C/C[N+]12CN3CN(CN(C3)C1)C2" ?
Output: false (0)

Task: What did this assay record as the result for "OCCNc1ccc(N=Nc2ccc(NCCO)cc2)cc1" ?
Output: false (0)

Task: What did this assay record as the result for "O=C(/C=C/c1ccc(O)c(O)c1)O[C@@H]1C[C@](O)(C(=O)O)C[C@@H](O)[C@H]1O" ?
Output: false (0)

Task: What did this assay record as the result for "O=C/C=C/C=C/C=O" ?
Output: false (0)

Task: What did this assay record as the result for "CCCCCCCCCCSCn1cc[n+](C)c1" ?
Output: true (1)

Task: What did this assay record as the result for "O=C(O)C(Cl)Cl" ?
Output: false (0)

Task: What did this assay record as the result for "c1ccc2cnncc2c1" ?
Output: false (0)
